- Test system: RXF 393
- measurement description: NCI tumour cell line growth inhibition, 48 h
The source made the active and inactive calls. Cut-off read from the data, not from the text of the source: active = GI50 up to about 1.1 µM and inactive = higher.
Hi there, use one of these labels in your reply, thanks! 1 (yes) (active), 0 (no) (inactive)

Use the examples below as a reference point.
> print(dat)
                                   compound  class.assignment
1  N#CC(C#N)[C@@H]1CCC=C(Sc2ccccc2)[C@H]1Sc1ccccc1            0 (no)
2  O=P(c1ccccc1)(c1ccccc1)N1O[C@@H](c2ccccc2)C=C[C@H]1c1ccccc1            0 (no)
3               CN(C)c1n/c(=N/Cc2ccncc2)ss1            0 (no)
4  CC(=O)O[C@@H]1C[C@]2(C(=O)c3ccccc3)C(=O)C(=O)S[C@]12c1ccccc1            0 (no)
5  CCCCCCCC1(N=[N+]=[N-])C(=O)Nc2ccccc2C1=O (stereo not drawn)            0 (no)

Moving on to another compound below.
Fill in: this test's call for `COc1ccc(CCNC(=O)Cc2ccccc2CO)cc1OC` is ___ 0 (no)
